# pIC50 values compiled below
Biological target: tumor cell-secreted nucleoside diphosphate kinase-B (NDPK-B, Nm23-H2) (Homo sapiens)
Construct: Partially purified tumor cell-secreted nucleoside diphosphate kinase-B was incubated with ADP and GTP; endogenous in cells; host or cells: human tumor cell lines MDA-MB-435s, Calu-1, WiDr and PC-3; concentrated conditioned Krebs buffer
Sequence (P22392 whole entry): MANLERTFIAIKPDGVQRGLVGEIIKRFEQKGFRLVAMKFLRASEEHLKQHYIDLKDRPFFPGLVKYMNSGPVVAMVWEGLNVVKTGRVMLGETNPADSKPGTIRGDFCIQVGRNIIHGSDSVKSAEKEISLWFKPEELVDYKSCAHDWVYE
Experiment: NDPK-B kinase activity assay (ADP to ATP with GTP as phosphoryl donor, luciferin-luciferase)
Format: biochemical
Conditions: inhibition of NDPK-B activity
Please report pIC50 as the negative decimal logarithm of the molar concentration, giving only the number.

Check out these entries, answers already filled in.
O=C(O[C@@H]1Cc2c(O)cc(O)cc2O[C@@H]1c1cc(O)c(O)c(O)c1)c1cc(O)c(O)c(O)c1 [EGCG, epigallocatechin gallate] ... 3.82
O=C(O[C@@H]1Cc2c(O)cc(O)cc2O[C@@H]1c1ccc(O)c(O)c1)c1cc(O)c(O)c(O)c1 [ECG, epicatechin gallate] ... 3.77
Nc1ncnc2c1ncn2[C@@H]1O[C@H](COP(=O)(O)OS(=O)(=O)O)[C@@H](OP(=O)(O)O)[C@H]1O ... 3.30

Query: Sample `O=c1c(O)cccc2cc(O)c(O)c(O)c12` — what was its pIC50?
Response: 3.22

Query: Sample O=c1oc2c(O)c(O)cc3c(=O)oc4c(O)c(O)cc1c4c23 [Ellagic Acid, hexahydroxydiphenic acid dilactone] — what was its pIC50?
Response: 4.64
